target: T1, PCSK9 protein inserted with biotin receiving peptide BP15 and His-tag: PCSK9-BP15-His6 (human, UniProt Q8NBP7 153-692; A8T644 31-152, biotin on the BP15 biotin receiving peptide (labeled during the expression)); experiment: competition ELISA, LDLR-FC coated, biotin PCSK9 + antibody
T1 construct: also called WT PCSK9; PCSK9 WT
observed.property: IC50 (µg/mL)
Numbers only here, please. The scale is µg/mL.

Given the entry h011-3191 (antibody, V domains shown) VH: QVQLVQSGAEVKKPGASVKVSCKASGYTFTGYTIHWVRQAPGQGLEWMGYIVPSSTYTKFNQKFKDRVTMTRDTSISTAYMELSRLRSDDTAVYYCARERIYSNYWFFDVWGQGTTVTVSS VL: DIVMTQSPSSLSASVGDRVTITCKASQNVYTAVAWYQQKPGKSPKLLIYSASNRYTGVPSRFSGSGSGTDFTLTISSLQPEDFATYFCQQYSSYPYTFGGGTKVEIK , report its measured IC50. 0.74

Given the entry h011-3181 (antibody, V domains shown) VH: QVQLVQSGAEVKKPGASVKVSCKASGYTFTGYTIHWVRQAPGQGLEWMGYINPSSTYTKFNQKFKDRVTMTRDTSISTAYMELSRLRSDDTAVYYCARERIYSNYWFFDVWGQGTTVTVSS VL: DIVMTQSPSSLSASVGDRVTITCKASQNVYTAVAWYQQKPGKSPKLLIYSASNRYTGVPSRFSGSGSGTDFTLTISSLQPEDFATYFCQQLSSYPDTFGGGTKVEIK , report its measured IC50. 0.857

Given the entry h011-3190 (antibody, V domains shown) VH: QVQLVQSGAEVKKPGASVKVSCKASGYTFTGYTIHWVRQAPGQGLEWMGEINPSSTYTKFNQKFKDRVTMTRDTSISTAYMELSRLRSDDTAVYYCARERIYSNYWFFDVWGQGTTVTVSS VL: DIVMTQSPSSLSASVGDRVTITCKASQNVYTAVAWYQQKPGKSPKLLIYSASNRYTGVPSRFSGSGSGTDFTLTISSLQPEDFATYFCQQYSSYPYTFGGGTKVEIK , report its measured IC50. 0.837
